// provenance: the NIST ThermoML archive (doi:10.1021/acs.jced.7b00035)

conditions: 308.15 K; 101.33 kPa; Liquid; Vibrating tube method
recorded metric: mass density (kg/m3)

{"compound": "CCC(=O)CC [pentan-3-one]", "endpoint value": 799.32}
{"compound": "CC(=O)C(C)C [3-methyl-2-butanone]", "endpoint value": 788.6}
{"compound": "CCCC(C)=O [pentan-2-one]", "endpoint value": 791.66}
{"compound": "CCCCC(C)=O [2-hexanone]", "endpoint value": 797.6}
{"compound": "CC(=O)CC(C)C [4-methylpentan-2-one]", "endpoint value": 786.75}

###

settings: 298.15 K; 101.33 kPa; Liquid; Vibrating tube method
recorded metric: mass density (kg/m3)

{"compound": "CCC(=O)CC [pentan-3-one]", "endpoint value": 809.16}
{"compound": "CC(=O)CC(C)C [4-methylpentan-2-one]", "endpoint value": 795.98}
{"compound": "CCCC(C)=O [pentan-2-one]", "endpoint value": 801.41}
{"compound": "CCCCC(C)=O [2-hexanone]", "endpoint value": 806.7}
{"compound": "CC(=O)C(C)C [3-methyl-2-butanone]", "endpoint value": 798.51}
